Consider the following binders and their measured EC50 readings.
- Target Of Assay: T1, mouse GPC3 on stably transfected SK-HEP-1 cells (mouse, UniProt Q8CFZ4 25-553)
- T1 construct: whole, on cells; also called SK-HEP-1::mouse GPC3; murine GPC3
- T1 sequence (Q8CFZ4 25-553 limits assumed): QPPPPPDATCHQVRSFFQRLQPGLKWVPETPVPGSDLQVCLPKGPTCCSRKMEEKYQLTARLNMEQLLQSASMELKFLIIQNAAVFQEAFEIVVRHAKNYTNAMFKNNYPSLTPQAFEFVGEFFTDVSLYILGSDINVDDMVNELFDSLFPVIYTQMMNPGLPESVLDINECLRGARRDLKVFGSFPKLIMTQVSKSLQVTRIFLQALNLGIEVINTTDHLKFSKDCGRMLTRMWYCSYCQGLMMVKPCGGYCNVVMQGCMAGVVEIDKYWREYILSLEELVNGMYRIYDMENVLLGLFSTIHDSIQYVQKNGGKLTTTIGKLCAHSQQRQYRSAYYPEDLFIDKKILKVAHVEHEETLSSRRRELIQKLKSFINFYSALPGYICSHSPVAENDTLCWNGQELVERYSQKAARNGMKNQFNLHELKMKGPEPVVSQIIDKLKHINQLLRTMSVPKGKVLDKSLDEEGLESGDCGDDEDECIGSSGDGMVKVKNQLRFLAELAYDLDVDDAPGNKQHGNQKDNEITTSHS
- Assay Summary: MSD-based (ECL) cell binding assay on transfected SK-HEP-1 cells
Measured Quantity: EC50 (nM)

Binder	Value Reported
lipocalin mutein of SEQ ID NO: 14 (designed binder, hNGAL (Lcn2) mutein; also called optimized GPC3 specific lipocalin mutein) QDSTSDLIPAPPLSKVPLQQNFQDNQFQGKWYVVGRAGNVGLREDKDPPKMWATIYELKEDKSYDVTNVRFAGKKVKYTIGTFVPGSQPGEFTLGQIKSEPGNTATLVRVVSTNYNQHAMVFFKEVYQNREIFFITLYGRTKELTSELKENFIRFSKSLGLPENHIVFPVPIDQAIDGSAWSHPQFEK	6.7
lipocalin mutein of SEQ ID NO: 16 (designed binder, hNGAL (Lcn2) mutein; also called optimized GPC3 specific lipocalin mutein) QDSTSDLIPAPPLSKVPLQQNFQDNQFQGKWYVVGRAGNVGLREDKDPPKMRATIYELKEDKSYDVTGVRFDSKKVTYSIGTFVPGSQPGEFTLGQIKSEPGNTANLVRVVSTNYNQHAMVFFKEVYQNREIFFIILYGRTKELTSELKENFIRFSKSLGLPENHIVFPVPIDQAIDGSAWSHPQFEK	4.4

Source: patent US20180141988A1
